target: T1, Taq DNA polymerase (Thermus aquaticus, UniProt P19821 1-832); test: AMC sensor, antibody immobilised
T1 construct: also called Taq enzyme; Taq DNA enzyme
T1 sequence (P19821 whole entry): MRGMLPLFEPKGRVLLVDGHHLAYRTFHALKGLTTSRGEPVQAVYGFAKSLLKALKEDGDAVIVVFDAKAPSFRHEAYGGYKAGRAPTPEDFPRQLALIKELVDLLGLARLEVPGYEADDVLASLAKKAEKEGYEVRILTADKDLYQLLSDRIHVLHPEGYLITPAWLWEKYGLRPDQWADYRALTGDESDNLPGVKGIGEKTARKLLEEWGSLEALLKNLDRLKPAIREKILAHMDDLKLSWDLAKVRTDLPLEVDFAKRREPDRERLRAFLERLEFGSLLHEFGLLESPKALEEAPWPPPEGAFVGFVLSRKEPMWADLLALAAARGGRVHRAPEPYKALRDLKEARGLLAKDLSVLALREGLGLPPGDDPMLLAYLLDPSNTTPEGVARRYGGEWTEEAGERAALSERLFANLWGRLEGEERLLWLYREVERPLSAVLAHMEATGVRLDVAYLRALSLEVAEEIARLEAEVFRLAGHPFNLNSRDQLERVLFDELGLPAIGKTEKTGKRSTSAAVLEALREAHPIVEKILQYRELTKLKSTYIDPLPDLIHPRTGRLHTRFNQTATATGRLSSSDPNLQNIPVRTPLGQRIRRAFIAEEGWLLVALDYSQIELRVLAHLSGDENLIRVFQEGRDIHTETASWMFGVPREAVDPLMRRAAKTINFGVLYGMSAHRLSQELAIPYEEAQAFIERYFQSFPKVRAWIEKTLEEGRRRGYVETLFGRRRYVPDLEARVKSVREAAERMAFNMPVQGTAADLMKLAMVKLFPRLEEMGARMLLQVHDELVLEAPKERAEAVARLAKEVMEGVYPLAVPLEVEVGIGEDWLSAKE
# Lookup of reported koff keyed by entry
Note: unit s⁻¹ is implicit; provide only the numeric part.

# count of solved cases: 2
Mutation 1-40 (antibody, V domains shown, Mutation 1 background; CDRs built) VH: QVQLQQPGAELVKPGASVRLSCQTSVDTFSTYYIYWVKQRPGEGLEWIGGLNPTSGGPVFNEKFKSKATLTVDTSSSTAYMQLSSLTSVDSAVYYCTRSVVRRGYYFDYWGQGTALTVSS VL: DIQMTQTTSSLSASLGDRVTISCRASQDIQNYINWYQQKPDGTIKLLIYYTSRLHSGVPSRFSGSGSGTDYSLTIANLEQEDIATYFCQQDDTVPITFGAGTKVELKR; 4.7e-05
Mutation 1-17 (antibody, V domains shown, Mutation 1 background; CDRs built) VH: QVQLQQPGAELVKPGASVRLSCQTSVNTFTTYYIYWVKQRPGEGLEWIGGLNPTSGGPVFNEKFKSKATLTVDTSSSTAYMQLSSLTSVDSAVYYCTRSLIRRGYYFDYWGQGTALTVSS VL: DIQMTQTTSSLSASLGDRVTISCRASQDINNYINWYQQKPDGTIKLLIYYTSRLNSGLPSRFSGSGSGTDYSLTIANLEQEDIATYFCQQDDTLPLTFGAGTKVELKR; 1.36e-05

Return the recorded koff value; entry: Mutation 1-4 (antibody, V domains shown, Mutation 1 background; CDRs built) VH: QVQLQQPGAELVKPGASVRLSCQTSVNTFSTYYIYWVKQRPGEGLEWIGGINPTSGGPVFNEKFKSKATLTVDTSSSTAYMQLSSLTSVDSAVYYCTRSVVRRGYYFDYWGQGTALTVSS VL: DIQMTQTTSSLSASLGDRVTISCRASQDIQNYINWYQQKPDGTIKLLIYYTSRLHSGVPSRFSGSGSGTDYSLTIANLEQEDIATYFCQQDDTVPITFGAGTKVELKR
2.75e-05
